Target: Histone-lysine N-methyltransferase NSD3 (Homo sapiens) (UniProt Q9BZ95)
Sequence (whole entry): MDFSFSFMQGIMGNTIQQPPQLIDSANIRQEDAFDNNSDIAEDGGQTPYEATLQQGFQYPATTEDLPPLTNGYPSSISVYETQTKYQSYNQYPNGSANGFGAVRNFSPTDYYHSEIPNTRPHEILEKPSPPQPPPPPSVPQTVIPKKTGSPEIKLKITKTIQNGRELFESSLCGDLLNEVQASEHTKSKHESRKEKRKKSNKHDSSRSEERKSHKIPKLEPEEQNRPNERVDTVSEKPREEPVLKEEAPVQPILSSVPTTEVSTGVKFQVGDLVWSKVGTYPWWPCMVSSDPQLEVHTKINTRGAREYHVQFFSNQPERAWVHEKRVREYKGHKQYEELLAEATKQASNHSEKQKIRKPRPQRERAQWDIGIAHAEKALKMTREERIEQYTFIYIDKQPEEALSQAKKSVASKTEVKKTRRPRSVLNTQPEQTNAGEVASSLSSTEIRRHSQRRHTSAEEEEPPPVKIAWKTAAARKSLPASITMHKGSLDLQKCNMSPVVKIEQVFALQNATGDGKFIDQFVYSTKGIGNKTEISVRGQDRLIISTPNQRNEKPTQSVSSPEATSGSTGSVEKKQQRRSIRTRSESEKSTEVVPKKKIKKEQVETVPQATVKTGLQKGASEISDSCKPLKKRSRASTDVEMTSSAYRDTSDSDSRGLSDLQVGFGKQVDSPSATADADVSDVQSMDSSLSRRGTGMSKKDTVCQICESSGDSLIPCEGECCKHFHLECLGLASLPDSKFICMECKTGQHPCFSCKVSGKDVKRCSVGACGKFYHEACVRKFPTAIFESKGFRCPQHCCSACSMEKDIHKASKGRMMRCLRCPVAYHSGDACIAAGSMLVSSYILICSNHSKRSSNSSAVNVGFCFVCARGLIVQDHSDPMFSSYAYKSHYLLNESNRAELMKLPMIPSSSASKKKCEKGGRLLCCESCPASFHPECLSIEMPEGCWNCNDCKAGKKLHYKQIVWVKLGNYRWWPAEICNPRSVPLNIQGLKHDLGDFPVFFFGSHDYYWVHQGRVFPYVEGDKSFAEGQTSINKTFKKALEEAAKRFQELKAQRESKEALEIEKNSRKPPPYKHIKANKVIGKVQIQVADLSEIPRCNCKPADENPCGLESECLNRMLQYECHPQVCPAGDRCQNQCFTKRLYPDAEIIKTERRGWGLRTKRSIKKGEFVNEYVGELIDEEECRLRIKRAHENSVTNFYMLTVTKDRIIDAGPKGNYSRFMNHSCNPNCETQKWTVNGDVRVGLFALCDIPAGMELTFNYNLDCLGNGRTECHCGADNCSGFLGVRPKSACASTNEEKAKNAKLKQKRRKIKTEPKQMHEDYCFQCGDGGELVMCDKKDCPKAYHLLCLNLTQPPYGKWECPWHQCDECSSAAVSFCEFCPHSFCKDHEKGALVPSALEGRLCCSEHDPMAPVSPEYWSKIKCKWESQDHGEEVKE
Assay: Induction of NSD3 degradation in human NCI-H1703 cells at 5 uM incubated for 72 hrs by Western blot analysis
Type: cell-based
Measured Quantity: NSD3 degradation (%)

[1] Cc1cc(CNCCCCCCCCCCCCC(=O)N[C@H](C(=O)N2C[C@H](O)C[C@H]2C(=O)N[C@@H](C)c2ccc(-c3scnc3C)cc2)C(C)(C)C)cc(C)c1-c1ncn(C)c1-c1ccnc2cc(F)ccc12
[2] Cc1cc(CNCCCCCCCCCCCCCCCC(=O)N[C@H](C(=O)N2C[C@H](O)C[C@H]2C(=O)N[C@@H](C)c2ccc(-c3scnc3C)cc2)C(C)(C)C)cc(C)c1-c1ncn(C)c1-c1ccnc2cc(F)ccc12
[3] Cc1cc(CNCCCCCCCCCCCC(=O)N[C@H](C(=O)N2C[C@H](O)C[C@H]2C(=O)N[C@@H](C)c2ccc(-c3scnc3C)cc2)C(C)(C)C)cc(C)c1-c1ncn(C)c1-c1ccnc2cc(F)ccc12
Query: Descending sort on NSD3 degradation required. Dear reader, please state the labels in the requested order.
Response: 1, 2, 3
(1: 38%, 2: 16.4%, 3: 1.5%)

[A] Cc1cc(CNCCCCCN2CCN(CC(=O)N[C@H](C(=O)N3C[C@H](O)C[C@H]3C(=O)N[C@@H](C)c3ccc(-c4scnc4C)cc3)C(C)(C)C)CC2)cc(C)c1-c1ncn(C)c1-c1ccnc2cc(F)ccc12
[B] Cc1cc(CNCCCN2CCN(CCCC(=O)N[C@H](C(=O)N3C[C@H](O)C[C@H]3C(=O)N[C@@H](C)c3ccc(-c4scnc4C)cc3)C(C)(C)C)CC2)cc(C)c1-c1ncn(C)c1-c1ccnc2cc(F)ccc12
Query: In the pair A and B , the larger recorded NSD3 degradation belongs to which? Identify your pick by its label.
Response: A
(A: 53.5%, B: 13.8%)
